Each recorded value in this set is attributed to patent US20240092758A1.

Please provide measured IC50 for the entries that follow.
# Test system: IL-13 induced STAT6 phosphorylation in BEAS-2B human lung epithelial cells
# procedure-text: Cellular JAKI potency assay (BEAS-2B)
# Format: cell-based
# run-conditions: Homo sapiens, BEAS-2B, BEAS-2B cells, read-out: BEAS2B pIC50 (converted)

// below: answered molecules
molecule: CCc1cc(O)ccc1-c1ccc2c(-c3nc(C4=C[C@@H](COC)NC4)c[nH]3)n[nH]c2c1 [Example 242]
target-system: IL-13 induced STAT6 phosphorylation in BEAS-2B human lung epithelial cells
IC50: 0.00316 to 0.01 µM
//
molecule: CCc1cc(O)ccc1-c1ccc2c(-c3nc(C4=CCN([C@H]5CC[C@@H](O)CC5)C4)c[nH]3)n[nH]c2c1 [Example 287]
target-system: IL-13 induced STAT6 phosphorylation in BEAS-2B human lung epithelial cells
IC50: 0.00316 to 0.01 µM
//
molecule: CCc1cc(O)ccc1-c1ccc2c(-c3nc(C4=C[C@H](CO)N(CCC(C)(C)O)C4)c[nH]3)n[nH]c2c1F [Example 329]
target-system: IL-13 induced STAT6 phosphorylation in BEAS-2B human lung epithelial cells
IC50: 0.01 to 0.0316 µM
//
molecule: CCc1cc(O)ccc1-c1ccc2c(-c3nc(C4=CCN(Cc5cnc[nH]5)CC4)c[nH]3)n[nH]c2c1 [Example 131]
target-system: IL-13 induced STAT6 phosphorylation in BEAS-2B human lung epithelial cells
IC50: 0.01 to 0.0316 µM
//
molecule: CCc1cc(O)ccc1-c1ccc2c(-c3nc(C4=CCN(CCC(C)(C)O)CC4)c[nH]3)n[nH]c2c1 [Example 35]
target-system: IL-13 induced STAT6 phosphorylation in BEAS-2B human lung epithelial cells
IC50: 0.00316 to 0.01 µM
//
molecule: CCc1cc(O)ccc1-c1ccc2c(-c3nc(C4=CCN(CC5COC5)C4)c[nH]3)n[nH]c2c1F [Example 74]
target-system: IL-13 induced STAT6 phosphorylation in BEAS-2B human lung epithelial cells
IC50: 0.01 to 0.0316 µM
//
molecule: CCc1cc(O)ccc1-c1ccc2c(-c3nc(C4=CCN(Cc5cn[nH]c5)CC4)c[nH]3)n[nH]c2c1F [Compound 11]
target-system: IL-13 induced STAT6 phosphorylation in BEAS-2B human lung epithelial cells
IC50: 0.01 to 0.0316 µM
//
molecule: CCc1cc(O)ccc1-c1ccc2c(-c3nc(C4=CC[C@@H](C)NC4)c[nH]3)n[nH]c2c1F [Example 235]
target-system: IL-13 induced STAT6 phosphorylation in BEAS-2B human lung epithelial cells
IC50: 0.01 to 0.0316 µM

Please give IC50, item by item, for the list that follows.
1. CCc1cc(O)ccc1-c1ccc2c(-c3nc(C4=CCNCC4)c[nH]3)n[nH]c2c1F [Compound 2]
2. CCc1cc(O)ccc1-c1ccc2c(-c3nc(C4=CC[C@H](C)N(CCN5CCCC5=O)C4)c[nH]3)n[nH]c2c1F [Example 271]

-- reply
0.00316 to 0.01 µM
0.01 to 0.0316 µM

Field: IC50. Fill in for each record below.
1. CCc1cc(O)ccc1-c1ccc2c(-c3nc(C4=CCN(C(=O)[C@@H](N)C(C)(C)O)C4)c[nH]3)n[nH]c2c1 [Example 170]
2. CCc1cc(O)c(C)cc1-c1ccc2c(-c3nc(C4=CCNCC4)c[nH]3)n[nH]c2c1F [Example 371]
3. CCc1cc(O)ccc1-c1ccc2c(-c3nc(C4=CCN(CC(=O)NC)C4)c[nH]3)n[nH]c2c1 [Example 93]

-- reply
1: 0.01 to 0.0316 µM; 2: 0.0316 to 0.1 µM; 3: 0.00316 to 0.01 µM
